pIC50 for assorted compounds
- System: HT-29
- protocol_notes: Cytotoxicity against human HT-29 cells assessed as inhibition of cell survival after 72 hrs by sulforhodamine B assay
- Type: cell-based
- run_conditions: HT-29, 72 h
pIC50: −log10 of the molar value.
readout_type: pIC50

compound	reported_result
COc1ccc2cc1Oc1ccc(cc1)C[C@H]1c3cc(OC)c(OC)c(c3CCN1C)Oc1c(OC)c(OC)cc3c1[C@H](C2)N(C)CC3 [THALIDASINE]	5.26
COc1ccc2cc1Oc1ccc(cc1)C[C@H]1c3cc(OC)c(OC)c(c3CCN1C)Oc1c(O)c(OC)cc3c1[C@H](C2)NCC3	5.09
COc1ccc2cc1Oc1ccc(cc1)C[C@H]1c3cc(OC)c(OC)c(c3CCN1C)Oc1c(O)c(OC)cc3c1[C@H](C2)N(C)CC3 [THALRUGOSIDINE]	5.44
